test: chemical genetic growth profiling, strain panel (AID 1159580);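 further: tested at 20 µM; growth read once vehicle control cultures reached saturation at 30 °C; 1 = growth at the plate median or of vehicle wells; lower values mean less growth of the strain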; conditions: S. cerevisiae deletion strains, growth OD, locus YER016W, strain bim1, active compounds read low
Hit rate of the full screen: of about 5,500 compounds, about 2,000 (36%) were called active. Not shown: some 18% with an inconclusive outcome. This is one part of the list. Where a SMILES comes first, the peptide text is derived from it.
Readout name: normalized growth
Give your answer as a number; write no unit.

The examples below pair each entry with its known result.
1. CC(=O)OC/C=C(\C)CC/C=C(\C)CC/C=C(\C)CC/C=C(\C)CC/C=C(\C)CC/C=C(\C)CC/C=C(\C)CC/C=C(\C)CCC=C(C)C    0.99
2. CC(=O)N[C@@H](CC(=O)O)C(=O)N[C@@H](CCC(=O)O)C(=O)O (Ac-Asp-Glu-OH)    1
3. CN[C@@H]1C(OC2[C@H](O[C@H]3[C@H](O)[C@@H](O)[C@H](N=C(N)N)[C@@H](O)[C@@H]3N=C(N)N)OC(C)[C@]2(O)CO)OC(CO)C(O)C1O (some centres undefined)    1
4. NC(=O)NC1NC(=O)NC1=O (centres undefined)    1.01
5. Cc1onc(-c2ccccc2)c1-c1ccc(S(N)(=O)=O)cc1    1.01
6. COP(=S)(OC)Oc1ccc([N+](=O)[O-])cc1    0.997
7. NCCCCC(=O)O    1.02
8. Clc1ccc(C(c2ccccc2Cl)C(Cl)Cl)cc1 (centres undefined)    1.02

We now examine a further compound.
// lookup normalized growth for NC1(C(=O)O)CC1 1.04

Where these numbers come from: PubChem BioAssay AID1159580
